- assay.overview: Inhibition of gp120 (His 105 residue) in HIV-1 BG505 infected in dog Cf2Th-CD4/CCR5 cells assessed as inhibition of viral entry incubated for 30 mins prior to infection and further incubated for 48 to 72 hrs in presence of firefly D-luciferin free acid and ATP by single-round infection luciferase assay
- Format: cell-based
- condition.label: Human immunodeficiency virus 1, BG505, Cf2Th-CD4/CCR5
pIC50: −log10 of the molar value.
readout: pIC50

INSERT INTO measurements (compound, recorded_result) VALUES
  ('C=CCC[C@@H]1c2cc(CNC)ccc2[C@H](NC(=O)C(=O)Nc2ccc(Cl)c(F)c2)[C@H]1CNC(=N)N', 3.97),
  ('CNCc1ccc2c(c1)[C@@H](CCCO)[C@H](CNC(=N)N)[C@H]2NC(=O)C(=O)Nc1ccc(Cl)c(F)c1', 3.87);

A. CNCc1ccc2c(c1)[C@@H](CCC(O)CO)[C@H](CNC(=N)N)[C@H]2NC(=O)C(=O)Nc1ccc(Cl)c(F)c1 (mixture of isomers)
B. CNCc1ccc2c(c1)C[C@H](CNC(=N)N)[C@H]2NC(=O)C(=O)Nc1ccc(Cl)c(F)c1
Choose between A and B : whose measured pIC50 value is numerically larger? The response must carry the label of the picked entry.
A
